B1: TPR 5TU (parent)
chain: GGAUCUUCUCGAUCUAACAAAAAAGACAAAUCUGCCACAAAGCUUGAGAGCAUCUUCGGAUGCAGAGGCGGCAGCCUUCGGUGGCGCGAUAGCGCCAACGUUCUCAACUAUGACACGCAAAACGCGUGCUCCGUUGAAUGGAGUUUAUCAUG

- Variants of: B1
- assay name: polymerase ribozyme fitness, log enrichment relative to wild type (log ratio); higher = more active; in vitro selection for triplet polymerase activity
Fewer inactive variants are shown than the library holds.
So basically: polymerase ribozyme fitness (log ratio) at -3 or higher? That is t. Lower than -3? That is f.

[
  {
    "variant key": "A23U A26U A41U G50A G65C A91C C103G G128U",
    "label": "f"
  },
  {
    "variant key": "A23C A24U C57U G58A U61A C93G C103U C118U",
    "label": "f"
  },
  {
    "variant key": "C54U G94C G124A",
    "label": "t"
  },
  {
    "variant key": "C87U A110G G112U",
    "label": "f"
  },
  {
    "variant key": "A37U G58A G59C A121U",
    "label": "t"
  },
  {
    "variant key": "U53A C57U G143C",
    "label": "f"
  },
  {
    "variant key": "A28G U53G C85A U104G A106G A138U A147G",
    "label": "f"
  },
  {
    "variant key": "C54U G59C A60G A122U",
    "label": "t"
  },
  {
    "variant key": "G42A U61A G86A G136C",
    "label": "f"
  },
  {
    "variant key": "G70A A97G",
    "label": "f"
  },
  {
    "variant key": "A26U C32G G86A C105U",
    "label": "f"
  },
  {
    "variant key": "G34U C36G G59C U148C",
    "label": "f"
  },
  {
    "variant key": "C51U G84A",
    "label": "t"
  },
  {
    "variant key": "C27G U56A",
    "label": "f"
  },
  {
    "variant key": "A22C C87U",
    "label": "t"
  },
  {
    "variant key": "C51U A89G C99U A150G",
    "label": "f"
  },
  {
    "variant key": "A29U C51A G94A",
    "label": "f"
  },
  {
    "variant key": "A52G U135G U139C A147C",
    "label": "f"
  },
  {
    "variant key": "A21U G34A C69A C132G",
    "label": "f"
  },
  {
    "variant key": "A28G C116U",
    "label": "f"
  },
  {
    "variant key": "U55A G59U A60G G94A",
    "label": "t"
  },
  {
    "variant key": "A20G G74A C87U U101C A107U",
    "label": "f"
  },
  {
    "variant key": "C36U A41G C95A A122G",
    "label": "t"
  },
  {
    "variant key": "A28C A29U A107U A115G",
    "label": "f"
  },
  {
    "variant key": "A17U C114U",
    "label": "t"
  },
  {
    "variant key": "U13C G58C G67A G94C",
    "label": "f"
  },
  {
    "variant key": "G11A C57A",
    "label": "t"
  },
  {
    "variant key": "A17G C18A G84C C93U",
    "label": "f"
  },
  {
    "variant key": "G11C A41C A66C C85U A122U G140U",
    "label": "f"
  },
  {
    "variant key": "U9A A24G C54A C87G",
    "label": "f"
  },
  {
    "variant key": "U53G G84A",
    "label": "t"
  },
  {
    "variant key": "A3G C14G U55A U56A C85U",
    "label": "f"
  },
  {
    "variant key": "A21U G48A U55A C75U G83C A89G A98U C105U G117A U144C",
    "label": "f"
  },
  {
    "variant key": "G71U G74C A120C",
    "label": "f"
  },
  {
    "variant key": "C35G A39C U82C C116U C125G G133A",
    "label": "f"
  },
  {
    "variant key": "U102G C116A",
    "label": "t"
  },
  {
    "variant key": "C27U G70A C87A",
    "label": "f"
  },
  {
    "variant key": "G71C C93U C95G C99G A115C",
    "label": "f"
  },
  {
    "variant key": "A20U C35A A41C C95U U145A",
    "label": "f"
  },
  {
    "variant key": "G25C A52C G58C G59C A138U",
    "label": "f"
  },
  {
    "variant key": "C5A A30G C36U G68U G100A",
    "label": "f"
  },
  {
    "variant key": "A47U G68U",
    "label": "f"
  },
  {
    "variant key": "G11U C76A G83U C85A A137G",
    "label": "f"
  },
  {
    "variant key": "A39U C69A G74C C76U C87A",
    "label": "f"
  },
  {
    "variant key": "A49G U55A C79U G92U C95A G140A",
    "label": "f"
  },
  {
    "variant key": "A137U G141A",
    "label": "f"
  },
  {
    "variant key": "C57U U130G C131U",
    "label": "f"
  },
  {
    "variant key": "U6C C14U U44A G68U G92U A98G C99G",
    "label": "f"
  },
  {
    "variant key": "A3U U145C",
    "label": "t"
  },
  {
    "variant key": "A3U C51A G124C",
    "label": "t"
  },
  {
    "variant key": "G58A A97U A107U",
    "label": "f"
  },
  {
    "variant key": "C57A U104G A120U",
    "label": "t"
  },
  {
    "variant key": "A29U G48A C87G A121G G141C G152U",
    "label": "f"
  },
  {
    "variant key": "C93A A97U G128A",
    "label": "f"
  },
  {
    "variant key": "U33C G68A",
    "label": "f"
  },
  {
    "variant key": "A73G G126C",
    "label": "t"
  },
  {
    "variant key": "A16U G58U",
    "label": "t"
  },
  {
    "variant key": "C36U G42A C76U G143A",
    "label": "f"
  },
  {
    "variant key": "G25C C57A C87U A97G",
    "label": "f"
  },
  {
    "variant key": "U4A C103A",
    "label": "t"
  },
  {
    "variant key": "G68U G94C C95A A115U G136U",
    "label": "f"
  },
  {
    "variant key": "A17U C85G",
    "label": "t"
  },
  {
    "variant key": "C63U A91U C93G U139G",
    "label": "f"
  },
  {
    "variant key": "U4A A39C U53A C96U C108U A120U C125U",
    "label": "f"
  },
  {
    "variant key": "G34U G58A G59A C85U U101G A150G",
    "label": "f"
  },
  {
    "variant key": "A39G G58U U82C C108A U146A A150C",
    "label": "f"
  },
  {
    "variant key": "G42U U45C C72U C85G A98G A106C G117U",
    "label": "f"
  },
  {
    "variant key": "G50U C51U C72U C93G U101C C108A G112U A113U A121G",
    "label": "f"
  },
  {
    "variant key": "A19U A28C A40C A41C U44G C85A A113C",
    "label": "f"
  },
  {
    "variant key": "A73G C76A G88C C105G C108G C114U G136U",
    "label": "f"
  },
  {
    "variant key": "U33G A40G C54U U55G A98G A147U A150C",
    "label": "f"
  },
  {
    "variant key": "C87U C105G",
    "label": "t"
  },
  {
    "variant key": "C36A U56A",
    "label": "f"
  },
  {
    "variant key": "C54U A89G C95A U148G",
    "label": "f"
  },
  {
    "variant key": "U7A A28U A40U U55A C57A C76U U78G C96G C123G",
    "label": "f"
  },
  {
    "variant key": "U31A A39U C93G C95U C99U A107G A113U C132U U135C A138G",
    "label": "f"
  },
  {
    "variant key": "U15A G25C A29C G48C A64U C93U C95A C149A",
    "label": "f"
  },
  {
    "variant key": "G68U A73G C76U A91U A98G C99A G112U",
    "label": "f"
  },
  {
    "variant key": "G70C G136C",
    "label": "f"
  },
  {
    "variant key": "A12U A19C U44G U148C",
    "label": "f"
  },
  {
    "variant key": "C10G U78G C85G U109C G140U",
    "label": "f"
  },
  {
    "variant key": "U45A A52U U56A C76U",
    "label": "f"
  },
  {
    "variant key": "C43A A52C G94A",
    "label": "f"
  }
]
